# System: HCV replicon 1A
# Protocol Summary: microbe, parasite or virus in culture
# Type: cell-based, Hepatitis C virus (HCV)
# Measurement Conditions: HCV replicon 1A; Replicon Assay A
Property: pIC50
Please note pIC50 is a logarithmic value: minus log10 of concentration in mol/L. Answer with that number alone.

Illustrative cases are given below, each with its answer.
[
  {
    "Compound": "COC(=O)NC(C(=O)N1CCCC1c1ncc(-c2cc(F)c3c(c2)OC(c2ccc(CC(C)(C)OC)s2)n2c-3cc3cc(-c4cnc(C5CCCN5C(=O)C(NC(=O)OC)C5CCOC(C)(C)C5)[nH]4)ccc32)[nH]1)C(C)C (single isomer, unassigned) [Compound 850]",
    "pIC50": 11.55
  },
  {
    "Compound": "COC(=O)N[C@H](C(=O)N1CCC[C@H]1c1nc(-c2cc(F)c3c(c2)OC(c2ccc(C4CC4)s2)n2c-3cc3cc(-c4c[nH]c([C@@H]5C[C@H]6C[C@H]6N5C(=O)[C@@H](NC(=O)OC)C(C)C)n4)ccc32)c[nH]1)C(C)C (single isomer, unassigned) [Compound 721]",
    "pIC50": 11.82
  },
  {
    "Compound": "COC(=O)N[C@H](C(=O)N1CCC[C@H]1c1ncc(-c2cc(F)c3c(c2)OC(c2ccc(CC(C)C)s2)n2c-3cc3cc(-c4cnc([C@@H]5CCCN5C(=O)[C@@H](NC(=O)OC)C(C)C)[nH]4)ccc32)[nH]1)C(C)C (single isomer, unassigned) [Compound 520]",
    "pIC50": 11.02
  },
  {
    "Compound": "COC(=O)N[C@H](C(=O)N1CCC[C@H]1c1ncc(-c2cc(F)c3c(c2)OC(c2ccc(C4(C)CC4)s2)n2c-3cc3cc(-c4cnc([C@@H]5CCCN5C(=O)[C@@H](NC(=O)OC)C(C)C)[nH]4)ccc32)[nH]1)C(C)C (single isomer, unassigned) [Compound 835]",
    "pIC50": 11.46
  },
  {
    "Compound": "CCc1ccc(C2Oc3cc(-c4cnc([C@@H]5CCCN5C(=O)[C@@H](NC(=O)OC)C(C)C)[nH]4)ccc3-c3c(F)c4cc(-c5cnc([C@@H]6CCCN6C(=O)C(NC(=O)OC)C6C[C@@H](C)O[C@@H](C)C6)[nH]5)ccc4n32)s1 (single isomer, unassigned) [Compound 634]",
    "pIC50": 11.64
  }
]

In: // returns reported pIC50 for input COC(=O)NC(C(=O)N1CCC[C@H]1c1ncc(-c2ccc3c(c2)cc2n3C(c3ccc(C4CC4)s3)Oc3cc(-c4cnc([C@@H]5C[C@H]6C[C@H]6N5C(=O)[C@@H](NC(=O)OC)C(C)C)[nH]4)cc(F)c3-2)[nH]1)C1C[C@@H](C)O[C@@H](C)C1 (single isomer, unassigned) [Compound 538]
Out: 11.33

----------
# Tested on: HCV replicon 1AQ30D
# Protocol Summary: microbe, parasite or virus in culture
# Format: cell-based, Hepatitis C virus (HCV)
# Measurement Conditions: Hepatitis C virus, read-out: 1A Q30D IC50 (nM), replicon 1AQ30D; Replicon Assay B
IC50 for assorted compounds
Response body: numeric value in nM, unit text excluded.

[
  {
    "Compound": "COC(=O)NC(C(=O)N1CCC[C@H]1c1ncc(-c2ccc3c(c2)cc2n3C(c3ccc(C4CC4)s3)Oc3cc(-c4cnc([C@@H]5CCCN5C(=O)[C@@H](NC(=O)OC)C(C)C)[nH]4)cc(F)c3-2)[nH]1)C1(F)CCOCC1 (single isomer, unassigned)",
    "Property": "IC50",
    "Recorded Measurement": 0.498
  },
  {
    "Compound": "COC(=O)N[C@H](C(=O)C1CCC[C@H]1c1ncc(-c2ccc3c(c2)cc2n3C(c3ccc(C(F)(F)F)s3)Oc3cc(-c4cnc([C@@H]5CCCN5C(=O)[C@@H](NC(=O)OC)C(C)C)[nH]4)cc(F)c3-2)[nH]1)C(C)C (single isomer, unassigned)",
    "Property": "IC50",
    "Recorded Measurement": 0.33
  },
  {
    "Compound": "COC(=O)NC(C(=O)N1CCC[C@H]1c1ncc(-c2cc(F)c3c(c2)OC(c2ccc(C4CC4)s2)n2c-3cc3cc(-c4cnc([C@@H]5CCCN5C(=O)[C@@H](NC(=O)OC)C(C)C)[nH]4)ccc32)[nH]1)C1C[C@@H](C)O[C@@H](C)C1 (stereo partly shown) [Compound 188]",
    "Property": "IC50",
    "Recorded Measurement": 0.02
  },
  {
    "Compound": "COC(=O)NC(C(=O)N1CCC[C@H]1c1ncc(-c2ccc3c(c2)cc2n3C(c3ccc(C4CC4)s3)Oc3cc(-c4cnc([C@@H]5CCCN5C(=O)[C@@H](NC(=O)OC)C(C)C)[nH]4)cc(F)c3-2)[nH]1)C1CN(C(=O)C2CC2)C1 (single isomer, unassigned)",
    "Property": "IC50",
    "Recorded Measurement": 0.08
  },
  {
    "Compound": "COC(=O)NC(C(=O)N1CCC[C@H]1c1ncc(-c2ccc3c(c2)cc2n3C(c3ccc(C4CC4)s3)Oc3cc(-c4cnc([C@@H]5CCCN5C(=O)[C@@H](NC(=O)OC)C(C)C)[nH]4)cc(F)c3-2)[nH]1)C1C[C@H](C)O[C@@H](C)C1 (single isomer, unassigned)",
    "Property": "IC50",
    "Recorded Measurement": 0.0703
  }
]

In: Look at this compound and give its reported IC50. COC(=O)NC(C(=O)N1CCC[C@H]1c1ncc(-c2ccc3c(c2)cc2n3C(c3ccc(F)s3)Oc3cc(-c4cnc([C@@H]5CCCN5C(=O)[C@@H](NC(=O)OC)C(C)C)[nH]4)cc(F)c3-2)[nH]1)C1C[C@@H](C)O[C@@H](C)C1 (single isomer, unassigned)
Out: 0.387

In: Entry under review: COC(=O)NC(C(=O)N1CCC[C@H]1c1ncc(-c2ccc3c(c2)cc2n3C(c3ccc(C(F)F)s3)Oc3cc(-c4cnc([C@@H]5CCCN5C(=O)[C@@H](NC(=O)OC)C(C)C)[nH]4)cc(F)c3-2)[nH]1)C1C[C@@H](C)O[C@@H](C)C1 (single isomer, unassigned) . Reported IC50?
Out: 0.051
